Assay system human 5-HT5A receptor (Homo sapiens); read-out recorded as Ki.

// input: 4 molecules below; output: Ki for each
1. CC1=C(c2ccc(F)cc2F)c2cc(C(=O)N=C(N)N)ccc2CC1
2. N#Cc1ccc(C2=CCCCc3ccc(C(=O)N=C(N)N)cc32)cc1
3. NC(N)=NC(=O)c1ccc2scc(-c3c(F)cc(F)cc3F)c2c1
4. NC(N)=NC(=O)c1ccc2c(c1)C(c1cccc([N+](=O)[O-])c1)=CCC2

Ans.
["0.3 to 3 nM", "30 to 300 nM", "0.3 to 3 nM", "3 to 30 nM"]

Qu. # Ki lookup, item CN(C)Cc1ccc(C2=CCCc3ccc(C(=O)N=C(N)N)cc32)cc1
Ans. 3 to 30 nM

----------
target: human 5-HT5A receptor (Homo sapiens)
Sequence (P47898 whole entry): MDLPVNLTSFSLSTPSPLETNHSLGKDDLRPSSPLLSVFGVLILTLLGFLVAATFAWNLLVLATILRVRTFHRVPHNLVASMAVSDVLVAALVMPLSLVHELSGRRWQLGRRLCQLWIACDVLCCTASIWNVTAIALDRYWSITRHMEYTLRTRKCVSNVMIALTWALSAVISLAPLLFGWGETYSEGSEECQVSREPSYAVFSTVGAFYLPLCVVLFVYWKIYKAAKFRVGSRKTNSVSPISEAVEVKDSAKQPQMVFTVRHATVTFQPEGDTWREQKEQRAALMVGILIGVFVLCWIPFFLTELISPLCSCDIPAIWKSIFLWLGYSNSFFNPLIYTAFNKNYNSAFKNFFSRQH
Counter-ions that a name gives are not always drawn.
Kindly supply the reported Ki values for the records listed here.

Example molecules with recorded Ki:
COc1cccc(C#N)c1C1=CC(C)Oc2ccc(C(=O)N=C(N)N)cc21 (stereo not drawn); 30 to 300 nM
CC1=C(c2cc(F)c(F)cc2F)c2cc(C(=O)N=C(N)N)ccc2CC1; 0.3 to 3 nM
COc1cc(F)c(C2=CCCc3ccc(C(=O)N=C(N)N)cc32)c(F)c1; 3 to 30 nM
COc1cccc(C#N)c1C1=CCCc2ccc(C(=O)N=C(N)N)cc21; 30 to 300 nM
NC(N)=NC(=O)c1ccc2scc(-c3cccnc3)c2c1; 30 to 300 nM
NC(N)=NC(=O)c1ccc2c(c1)C(c1ccccc1Oc1ccccc1)=CCC2; 30 to 300 nM

// input: 6 molecules below; output: Ki for each
1. COCCN/C(N)=N/C(=O)c1ccc2c(c1)C(c1c(F)cccc1F)=CCO2 [Example 1-03, hydrochloride]
2. CCC1=C(c2ccccc2)c2cc(C(=O)N=C(N)N)ccc2CC1
3. COc1ncccc1C1=CCCc2ccc(C(=O)N=C(N)N)cc21
4. Cn1cc(C2=CCOc3ccc(C(=O)N=C(N)N)cc32)cn1
5. NC(N)=NC(=O)c1ccc2c(c1)C(c1ccc(F)cc1F)=CCC2
6. NC(N)=NC(=O)c1ccc2scc(-c3ccc(F)cc3F)c2c1

Ans.
1. 3 to 30 nM
2. 3 to 30 nM
3. 3 to 30 nM
4. 30 to 300 nM
5. 0.3 to 3 nM
6. 0.3 to 3 nM

// input: 3 molecules below; output: Ki for each
1. NC(N)=NC(=O)c1ccc2c(c1)C(c1cccc(F)c1Cl)=CCC2
2. NC(N)=NC(=O)c1ccc2c(c1)C(c1ccc(F)cc1)=C(F)CC2
3. NC(N)=NC(=O)c1ccc2c(c1)C(c1ccc(F)cc1Cl)=CCO2

Ans.
["0.3 to 3 nM", "0.3 to 3 nM", "0.3 to 3 nM"]

// input: 3 molecules below; output: Ki for each
1. Cn1nccc1C1=CCCc2ccc(C(=O)N=C(N)N)cc21
2. COc1ccc(C2=C(C)CCc3ccc(C(=O)N=C(N)N)cc32)c(C)c1
3. NC(N)=NC(=O)c1ccc2c(c1)C(c1cc(F)c(F)cc1F)=CCO2

Ans.
1: 3 to 30 nM; 2: 0.3 to 3 nM; 3: 3 to 30 nM

----------
pKi: −log10 of the molar value.
Assay system human 5-HT5A receptor (Homo sapiens, UniProt P47898); read-out recorded as pKi.

Example molecules with recorded pKi:
COc1cc(F)c(F)cc1C1=CCCc2ccc(C(=O)N=C(N)N)cc21 [Example 2-100]; 7.52 to 8.52
Cc1ccc(Cl)c(C2=CCOc3ccc(C(=O)N=C(N)N)cc32)c1F [Example 1-82]; 8.52 to 9.52
Cc1ccc(C2=CCCc3ccc(C(=O)N=C(N)N)cc32)c(Cl)c1 [Example 2-134]; 8.52 to 9.52
N#Cc1ccc(C2=C(F)CCc3ccc(C(=O)N=C(N)N)cc32)cc1 [Example 2-91]; 8.52 to 9.52
COc1ccccc1-c1c(C)sc2ccc(C(=O)N=C(N)N)cc12 [Example 3-33]; 8.52 to 9.52
Cc1ccc(C2=CCOc3ccc(C(=O)N=C(N)N)cc32)c(Cl)c1 [Example 1-91]; 8.52 to 9.52

// input: 5 molecules below; output: pKi for each
1. NC(N)=NC(=O)c1ccc2occ(-c3ccccc3)c2c1 [Example 3-09]
2. COc1ccccc1C1=C(C)CCc2ccc(C(=O)N=C(N)N)cc21 [Example 2-58]
3. N#Cc1cccc(F)c1C1=CCCc2ccc(C(=O)N=C(N)N)cc21 [Example 2-180]
4. CCCC1=C(c2ccccc2)c2cc(C(=O)N=C(N)N)ccc2CC1 [Example 2-116]
5. NC(N)=NC(=O)c1ccc2c(c1)C(c1ccc(F)cc1F)=C(F)CC2 [Example 2-90]

Ans.
["6.52 to 7.52", "7.52 to 8.52", "7.52 to 8.52", "6.52 to 7.52", "7.52 to 8.52"]

Qu. # pKi lookup, item NC(N)=NC(=O)c1ccc2c(c1)C(c1c(Cl)cncc1Cl)=CCC2 [Example 2-190]
Ans. 7.52 to 8.52
